These data points were gathered from patent US20250171459A1.

Target: APOL1 (Homo sapiens)
Sequence (O14791 1-398 S342G/I384M): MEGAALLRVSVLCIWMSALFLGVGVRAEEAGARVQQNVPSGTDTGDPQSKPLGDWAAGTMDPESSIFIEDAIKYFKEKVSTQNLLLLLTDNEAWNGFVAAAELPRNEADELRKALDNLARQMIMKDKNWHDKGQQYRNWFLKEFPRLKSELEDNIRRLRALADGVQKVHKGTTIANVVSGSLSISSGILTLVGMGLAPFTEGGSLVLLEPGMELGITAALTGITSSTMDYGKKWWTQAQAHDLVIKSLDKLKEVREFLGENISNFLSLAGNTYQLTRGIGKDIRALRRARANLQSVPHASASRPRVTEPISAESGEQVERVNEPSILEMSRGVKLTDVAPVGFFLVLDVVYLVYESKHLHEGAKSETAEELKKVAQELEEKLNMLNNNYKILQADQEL
Assay: MultiTox-Fluor Multiplex Cytotoxicity Assay in tet-inducible APOL1 T-REx-HEK293 cells (cell rescue, ratio of dead to live cells)
Settings: tet-inducible transgenic APOL1 T-REx-HEK293 cell lines, 50 ng/mL tet, 24 hours; read-out: IP50 (i.e., IC50 for cell proliferation)
Observed Property: IC50

Recorded results for 3 molecules are shown here.
CCc1cc2c(s1)CCO[C@@]21CCN(C[C@H]2C[C@@H](NC(=O)C3(O)CCC3)C2)[C@@H](C)C1
< 100 nM
C=C(CO)n1cc(CN2CC[C@]3(C[C@@H]2C)OCCc2c3sc(C(F)(F)F)c2CO)cn1
< 100 nM
CCc1cc2c(s1)CCO[C@@]21CCN(Cc2cn(C(C)(CO)CO)nn2)[C@@H](C)C1
500 to 1000 nM

GET /value?item= C[C@H]1C[C@@]2(CCN1C1COC1)OCCc1cc(CC(F)F)sc12 &field=IC50 returns 500 to 1000 nM

----------
Listed here are compounds together with their documented IC50.
Molecular target: APOL1 (Homo sapiens)
Sequence (O14791 1-398 S342G/I384M): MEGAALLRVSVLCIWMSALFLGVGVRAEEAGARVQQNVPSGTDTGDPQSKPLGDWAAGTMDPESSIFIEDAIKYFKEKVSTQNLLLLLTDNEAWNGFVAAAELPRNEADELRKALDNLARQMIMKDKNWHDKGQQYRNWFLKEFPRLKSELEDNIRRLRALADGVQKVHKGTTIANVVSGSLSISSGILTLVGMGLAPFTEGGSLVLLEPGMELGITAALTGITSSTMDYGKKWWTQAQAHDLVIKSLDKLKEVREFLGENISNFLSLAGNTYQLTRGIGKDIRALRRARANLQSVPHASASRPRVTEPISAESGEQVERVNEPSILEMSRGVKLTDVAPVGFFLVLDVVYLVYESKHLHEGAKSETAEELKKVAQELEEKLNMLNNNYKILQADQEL
Assay: MultiTox-Fluor Multiplex Cytotoxicity Assay in tet-inducible APOL1 T-REx-HEK293 cells (cell rescue, ratio of dead to live cells)
Conditions: tet-inducible transgenic APOL1 T-REx-HEK293 cell lines, 50 ng/mL tet, 24 hours; read-out: IP50 (i.e., IC50 for cell proliferation)

Consider the following illustrative entries.
CCc1cc2c(s1)CCO[C@@]21CCN(Cc2cn(C(C)c3nnc4n3CCC4)nn2)[C@@H](C)C1 (stereo partly drawn)
100 to 500 nM
C[C@H]1C[C@@]2(CCN1Cc1cnn(CC(O)C3(O)CCOCC3)c1)OC[C@@H](O)c1cc(C(F)(F)F)sc12 (stereo partly drawn)
< 100 nM

Alright, here's another compound for you.
Noted IC50 for C[C@H]1C[C@@]2(CCN1Cc1ccc(NS(=O)(=O)C3CC3)nc1)OCC(O)c1cc(Cl)sc12 (stereo partly drawn) , tested on APOL1 (Homo sapiens): < 100 nM
